// provenance: PubChem BioAssay (NCI)

Test system: EKVX NSCLC
PROTOCOL: NCI tumour cell line growth inhibition, 48 h
MEASUREMENT_TYPE: TGI

COMPOUND	ASSAY_SYSTEM	TGI
C=C1C(=O)O[C@H]2[C@H]1CC/C(COC(=O)CCSCCC(=O)OC/C1=C/CC[C@@]3(C)O[C@H]3[C@H]3OC(=O)C(=C)[C@@H]3CC1)=C\CC[C@@]1(C)O[C@@H]21	EKVX NSCLC	3.39 µM
O=C1Nc2ccccc2Cn2c1cc1oc(-c3ccccc3)cc12	EKVX NSCLC	> 100 µM
Fc1ccc(N=C/C=C/Nc2ccc(F)cc2)cc1	EKVX NSCLC	25.9 µM
Cn1c(=O)c(NC(=O)C(Cl)(Cl)Cl)nc2ccccc21	EKVX NSCLC	> 100 µM
CC(=O)OCC1OC(OCCCCCCO)C(OC(C)=O)C(OC(C)=O)C1OC(C)=O (stereo unspecified)	EKVX NSCLC	> 100 µM
O=S(OC12CC3CC(CC(C3)C1)C2)c1cc(Cl)cc(Cl)c1OCc1ccccc1 (stereo unspecified)	EKVX NSCLC	> 100 µM
Nc1ccccc1.[C-]#[O+].[C-]#[O+].[C-]#[O+].[C-]#[O+].[C-]#[O+].[Cr]	EKVX NSCLC	> 10 µM
Cc1ccc(-n2cc(-c3ccc(Cl)cc3)c3c(N/N=C4\SCC(=O)N4C)ncnc32)cc1	EKVX NSCLC	> 100 µM
CN(C)c1nnnn1-c1c(N)n(C)c(=O)n(C)c1=O	EKVX NSCLC	> 100 µM
O=C(NCCO)c1ccc([N+](=O)[O-])cc1	EKVX NSCLC	> 100 µM

Query :: Param readout= TGI; system= EKVX NSCLC; entry= CCCCCCNC(=O)CCC(NC(=O)c1ccc(N(C)Cc2cnc3nc(N)nc(N)c3n2)cc1)C(=O)NCCCCCC (stereo unspecified) ; returns value.
Result :: > 100 µM

Query :: Next record, please: COC1=C(C)C(=O)c2c(c(CCCl)c3n2CCC3O)C1=O (stereo unspecified)
Result :: 7.69 µM

Query :: Next record, please: O=c1cc(-c2c[nH]c3ccccc23)[nH]c2cc3c(cc12)OCO3
Result :: > 100 µM

Query :: Next record, please: CCC/C=C1\CCC(CN(C)C)C1=O (stereo unspecified)
Result :: 12.3 µM
